Study Target: CD3ε homodimer protein (human, UniProt P07766 23-126, limits assumed)
Sequence (P07766 23-126 limits assumed): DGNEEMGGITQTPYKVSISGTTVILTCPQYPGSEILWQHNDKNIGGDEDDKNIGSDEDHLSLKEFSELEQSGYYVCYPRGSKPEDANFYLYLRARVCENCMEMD
Procedure Summary: SPR, immobilized CD3ε homodimer;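 note: biacore T200 surface plasmon resonance at 25 °C, antibody variants flowed as analytes over amine-coupled CD3ε homodimer on a CM4 chip, variant binding amount divided by that of GLS3000 antibody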
Quantity: ratio of amounts bound (vs GLS3000)

Binder	Result
GLS3000 L33I (antibody, name in Kabat numbering, V domains shown, one-arm format as m2) VH: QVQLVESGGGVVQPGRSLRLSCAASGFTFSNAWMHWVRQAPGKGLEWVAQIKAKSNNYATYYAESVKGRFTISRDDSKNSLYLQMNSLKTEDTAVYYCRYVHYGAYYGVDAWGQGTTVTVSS VL: DIVMTQSPLSLPVTPGEPASISCRSSQSLVHSNRNTYIHWYQQKPGQAPRLLIYKVSNRFSGVPDRFSGSGSGTDFTLKISRVEAEDVGVYYCGQGTQVPYTFGQGTKLEIK	0.83
GLS3000 Q90Y (antibody, name in Kabat numbering, V domains shown, one-arm format as m2) VH: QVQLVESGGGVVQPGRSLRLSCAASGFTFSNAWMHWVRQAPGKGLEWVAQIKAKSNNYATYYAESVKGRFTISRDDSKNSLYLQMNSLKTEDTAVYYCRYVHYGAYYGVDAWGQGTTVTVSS VL: DIVMTQSPLSLPVTPGEPASISCRSSQSLVHSNRNTYLHWYQQKPGQAPRLLIYKVSNRFSGVPDRFSGSGSGTDFTLKISRVEAEDVGVYYCGYGTQVPYTFGQGTKLEIK	0.17

Let's switch to this binder now.
Return reported ratio of amounts bound (vs GLS3000); argument: GLS3000 R24Y (antibody, name in Kabat numbering, V domains shown, one-arm format as m2) VH: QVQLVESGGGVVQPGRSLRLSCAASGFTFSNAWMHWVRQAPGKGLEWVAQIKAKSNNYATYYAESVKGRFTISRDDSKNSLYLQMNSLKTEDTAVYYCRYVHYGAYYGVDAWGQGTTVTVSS VL: DIVMTQSPLSLPVTPGEPASISCYSSQSLVHSNRNTYLHWYQQKPGQAPRLLIYKVSNRFSGVPDRFSGSGSGTDFTLKISRVEAEDVGVYYCGQGTQVPYTFGQGTKLEIK 0.87
